assayed-target: 11-beta-hydroxysteroid dehydrogenase type 2 (Mus musculus)
Sequence (P51661 whole entry): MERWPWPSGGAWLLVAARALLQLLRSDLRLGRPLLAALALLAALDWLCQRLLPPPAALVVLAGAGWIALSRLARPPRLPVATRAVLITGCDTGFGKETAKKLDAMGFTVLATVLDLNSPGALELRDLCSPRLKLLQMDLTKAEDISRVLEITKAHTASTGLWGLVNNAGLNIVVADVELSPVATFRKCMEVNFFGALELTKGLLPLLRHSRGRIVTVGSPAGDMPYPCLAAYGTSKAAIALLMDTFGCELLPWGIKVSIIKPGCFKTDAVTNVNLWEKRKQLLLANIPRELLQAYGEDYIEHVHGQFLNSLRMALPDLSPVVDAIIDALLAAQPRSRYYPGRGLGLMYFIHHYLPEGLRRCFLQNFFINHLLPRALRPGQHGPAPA
experiment-description: Inhibition of mouse 11beta-HSD2 overexpressed in microsomal fraction of HEK293 cells using [3H]-cortisol as substrate by scintillation proximity assay in presence of NAD+
observed-property: IC50 (µM)
The reply should contain only the number, in µM.

The cases that follow already have their IC50 on record.
CC(=O)O[C@@H]1C[C@@H]2[C@@]3(C)CC[C@H](O)C(C)(C)[C@@H]3CC[C@@]2(C)[C@]2(C)C(=O)C=C[C@@H]12 :: 217
CO[C@@H]1CC(=O)[C@]2(C)[C@@H]1[C@H](O)C[C@@H]1[C@@]3(C)CC[C@H](O)C(C)(C)[C@@H]3CC[C@]12C :: 292

Query: IC50; subject: CO[C@@H]1CC(=O)[C@]2(C)[C@@H]1[C@H](OC(C)=O)C[C@@H]1[C@@]3(C)CC[C@H](O)C(C)(C)[C@@H]3CC[C@]12C
155

###

assayed-target: 11-beta-hydroxysteroid dehydrogenase type 2 (Homo sapiens, UniProt P80365)
Sequence (P80365 whole entry): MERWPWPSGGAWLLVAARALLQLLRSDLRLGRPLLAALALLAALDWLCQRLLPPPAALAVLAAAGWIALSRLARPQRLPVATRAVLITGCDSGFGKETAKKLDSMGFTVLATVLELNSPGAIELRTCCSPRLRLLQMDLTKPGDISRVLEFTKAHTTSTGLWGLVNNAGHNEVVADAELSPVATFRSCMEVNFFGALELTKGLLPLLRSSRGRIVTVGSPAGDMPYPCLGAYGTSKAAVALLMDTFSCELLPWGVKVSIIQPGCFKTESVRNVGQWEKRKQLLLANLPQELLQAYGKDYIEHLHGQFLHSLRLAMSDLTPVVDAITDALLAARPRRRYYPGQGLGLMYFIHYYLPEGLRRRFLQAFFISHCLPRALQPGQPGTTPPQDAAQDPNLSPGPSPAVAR
experiment-description: Inhibition of human 11beta-HSD2 overexpressed in microsomal fraction of HEK293 cells using [3H]-cortisol as substrate by scintillation proximity assay in presence of NAD+
observed-property: IC50 (µM)
Express your answer in µM, writing the number without its unit.

What value of measured IC50 is listed for CC1(C)[C@@H](O)CC[C@]2(C)[C@H]3C[C@@H](O)[C@@H]4C=CC(=O)[C@@]4(C)[C@]3(C)CC[C@@H]12 ?
284

###

Catalogue of pIC50 readings, one per entry.
assayed-target: 11-beta-hydroxysteroid dehydrogenase 1 (Homo sapiens, UniProt P28845)
Sequence (P28845 whole entry): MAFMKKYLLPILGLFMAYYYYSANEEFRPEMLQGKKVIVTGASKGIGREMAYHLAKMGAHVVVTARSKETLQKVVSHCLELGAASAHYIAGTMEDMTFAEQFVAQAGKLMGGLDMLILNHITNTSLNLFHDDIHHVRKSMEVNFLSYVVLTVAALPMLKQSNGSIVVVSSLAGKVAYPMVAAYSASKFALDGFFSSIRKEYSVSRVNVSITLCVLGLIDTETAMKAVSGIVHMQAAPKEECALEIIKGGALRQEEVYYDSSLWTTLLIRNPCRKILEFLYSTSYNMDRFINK
experiment-description: Inhibition of human 11beta-HSD1 overexpressed in microsomal fraction of HEK293 cells assessed as formation of [3H]-cortisol from [3H]-cortisone by scintillation proximity assay in presence of NADPH
Lab note: report pIC50 as minus log10 of the concentration in molar units, number only.

# example entries with known answers
CO[C@@H]1CC(=O)[C@]2(C)[C@@H]1[C@H](O)C[C@@H]1[C@@]3(C)CC[C@H](O)C(C)(C)[C@@H]3CC[C@]12C :: 6.71
CO[C@@H]1CC(=O)[C@]2(C)[C@@H]1[C@H](OC(C)=O)C[C@@H]1[C@@]3(C)CC[C@H](O)C(C)(C)[C@@H]3CC[C@]12C :: 7.82
CC(=O)O[C@@H]1C[C@@H]2[C@@]3(C)CC[C@H](O)C(C)(C)[C@@H]3CC[C@@]2(C)[C@]2(C)C(=O)C=C[C@@H]12 :: 7.47
CC(=O)O[C@@H]1C[C@@H]2[C@@]3(C)CC[C@H](O)C(C)(C)[C@@H]3CC[C@@]2(C)[C@]2(C)C(=O)C[C@@H](O)[C@@H]12 :: 7.12

Could you now consider this next compound?
# input compound: CC1(C)[C@@H](O)CC[C@]2(C)[C@H]3C[C@@H](O)[C@@H]4C=CC(=O)[C@@]4(C)[C@]3(C)CC[C@@H]12 ; wanted: its pIC50
6.40

###

Listed next: entries and their corresponding pIC50.
assayed-target: 11-beta-hydroxysteroid dehydrogenase 1 (Mus musculus)
Sequence (P50172 whole entry): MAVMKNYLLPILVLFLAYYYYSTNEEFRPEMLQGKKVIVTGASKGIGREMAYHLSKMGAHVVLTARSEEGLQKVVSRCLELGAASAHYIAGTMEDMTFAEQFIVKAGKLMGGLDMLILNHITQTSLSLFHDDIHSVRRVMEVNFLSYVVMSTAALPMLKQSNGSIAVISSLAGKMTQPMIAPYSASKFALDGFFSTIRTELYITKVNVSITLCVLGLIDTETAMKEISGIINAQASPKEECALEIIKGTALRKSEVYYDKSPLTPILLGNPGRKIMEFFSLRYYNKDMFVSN
experiment-description: Inhibition of mouse 11beta-HSD1 overexpressed in microsomal fraction of HEK293 cells assessed as formation of [3H]-cortisol from [3H]-cortisone by scintillation proximity assay in presence of NADPH
pIC50 (log units): -log10 of the concentration in mol/L.

CO[C@@H]1CC(=O)[C@]2(C)[C@@H]1[C@H](O)C[C@@H]1[C@@]3(C)CC[C@H](O)C(C)(C)[C@@H]3CC[C@]12C :: 5.55
CC(=O)O[C@@H]1C[C@@H]2[C@@]3(C)CC[C@H](O)C(C)(C)[C@@H]3CC[C@@]2(C)[C@]2(C)C(=O)C=C[C@@H]12 :: 5.14
CC(=O)O[C@@H]1C[C@@H]2[C@@]3(C)CC[C@H](O)C(C)(C)[C@@H]3CC[C@@]2(C)[C@]2(C)C(=O)C[C@@H](O)[C@@H]12 :: 5.33
CC1(C)[C@@H](O)CC[C@]2(C)[C@H]3C[C@@H](O)[C@@H]4C=CC(=O)[C@@]4(C)[C@]3(C)CC[C@@H]12 :: 5.54

Query compound follows.
May I ask what pIC50 has been recorded for CO[C@@H]1CC(=O)[C@]2(C)[C@@H]1[C@H](OC(C)=O)C[C@@H]1[C@@]3(C)CC[C@H](O)C(C)(C)[C@@H]3CC[C@]12C ?
5.48
